- target-or-system: UniProt P03372
- measurement-description: ERα reporter (luciferase) transactivation assay in transfected HEK293 cells
- Assay type: cell-based
- Set-up: expressed in transfected cells; host or cells: HEK293
- recorded-conditions: sample concentration 10 μM, 24 hours, mean of at least three independent transfections
Answer each item with its documented ERα receptor activation relative to 10 nM E2 corresponding 100.
One number for each entry, in %.

Examples from the recorded data:
>  <molecule>
COc1ccc(C2=NOC(Cc3ccccc3)C2)cc1 (single isomer, unassigned) [12a]

>  <reported>
55.2

$$$$
>  <molecule>
Oc1ccc(CCC2=NOC(CCc3ccccc3)C2)cc1 (single isomer, unassigned) [106b]

>  <reported>
15.8

$$$$
>  <molecule>
c1ccc(CCC2=NOC(Cc3cccc4ccccc34)C2)cc1 (single isomer, unassigned) [67a]

>  <reported>
34.1

$$$$
>  <molecule>
c1ccc(CCC2=NOC(CCc3ccccc3)C2)cc1 (single isomer, unassigned) [116a, 3,5-Di-phenethyl-4,5-dihydroisoxazole]

>  <reported>
3.4

$$$$
>  <molecule>
Oc1ccc(CCC2=NOC(Cc3ccc(F)cc3)C2)cc1 (single isomer, unassigned) [98a]

>  <reported>
77.8

$$$$

Please look at the items below and tell me ERα receptor activation relative to 10 nM E2 corresponding 100 for each one, in order.
1. COc1ccccc1CC1CC(CCc2ccccc2)=NO1 (single isomer, unassigned) [64b]
2. COc1ccccc1CC1CC(CCc2ccccc2)=NO1 (single isomer, unassigned) [64a]
3. c1ccc(CCCC2=NOC(c3ccccc3)C2)cc1 (single isomer, unassigned) [113b]

Completion:
0.4
18.9
11.5

---

- target-or-system: ERβ (Homo sapiens)
- Sequence (Q92731 whole entry): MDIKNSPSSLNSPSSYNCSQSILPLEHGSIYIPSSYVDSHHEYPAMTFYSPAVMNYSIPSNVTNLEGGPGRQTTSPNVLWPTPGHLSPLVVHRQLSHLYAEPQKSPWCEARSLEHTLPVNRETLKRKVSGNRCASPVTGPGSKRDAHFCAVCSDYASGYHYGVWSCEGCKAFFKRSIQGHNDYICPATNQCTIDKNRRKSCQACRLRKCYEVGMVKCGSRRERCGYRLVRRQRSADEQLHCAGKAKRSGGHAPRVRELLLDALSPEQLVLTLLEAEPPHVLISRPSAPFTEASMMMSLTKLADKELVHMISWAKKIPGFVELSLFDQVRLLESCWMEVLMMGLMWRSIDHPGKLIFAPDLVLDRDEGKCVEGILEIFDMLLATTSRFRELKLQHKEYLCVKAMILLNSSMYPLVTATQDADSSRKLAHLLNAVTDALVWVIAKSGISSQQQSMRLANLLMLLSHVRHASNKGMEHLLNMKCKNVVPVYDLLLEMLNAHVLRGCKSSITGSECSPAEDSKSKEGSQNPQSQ
- measurement-description: Competitive binding against [6,7-3H(N)]estradiol in COS-1 cells transfected with human ERβ
- recorded-conditions: ERβ IC50, COS-1 cells, competition against labeled E2, 2 hours at 37° C.
experimental-endpoint: pIC50
Numbers only, as −log10 of the molar value.

Examples from the recorded data:
>  <compound>
Oc1ccc(CCC2=NOC(Cc3ccccc3)C2)cc1 (single isomer, unassigned) [93a]

>  <pIC50>
5.90

$$$$
>  <compound>
Oc1ccc(CCCC2=NOC(c3ccccc3)C2)cc1 (single isomer, unassigned) [88b]

>  <pIC50>
5.90

$$$$
>  <compound>
CC1(c2ccccc2)CC(CCCc2ccc(O)cc2)=NO1 (single isomer, unassigned) [90a]

>  <pIC50>
5.51

$$$$
>  <compound>
Oc1ccc(CCC2=NOC(Cc3ccccc3)C2)cc1 (single isomer, unassigned) [93b]

>  <pIC50>
5.96

$$$$
>  <compound>
c1ccc(CCCC2=NOC(c3ccccc3)C2)cc1 (single isomer, unassigned) [113b]

>  <pIC50>
5.27

$$$$
>  <compound>
Oc1ccc(CCCC2=NOC(c3ccccc3)C2)cc1 (single isomer, unassigned) [88a]

>  <pIC50>
5.69

$$$$

Turning now to a further compound:
Measured pIC50, CC1(c2ccccc2)CC(CCCc2ccc(O)cc2)=NO1 (single isomer, unassigned) [90b] : 4.70

---

Answer each item with its documented ERα receptor antagonism relative to 100 nM E2 corresponding 100.
- target-or-system: ERα (Homo sapiens)
- Sequence (P03372 1-595): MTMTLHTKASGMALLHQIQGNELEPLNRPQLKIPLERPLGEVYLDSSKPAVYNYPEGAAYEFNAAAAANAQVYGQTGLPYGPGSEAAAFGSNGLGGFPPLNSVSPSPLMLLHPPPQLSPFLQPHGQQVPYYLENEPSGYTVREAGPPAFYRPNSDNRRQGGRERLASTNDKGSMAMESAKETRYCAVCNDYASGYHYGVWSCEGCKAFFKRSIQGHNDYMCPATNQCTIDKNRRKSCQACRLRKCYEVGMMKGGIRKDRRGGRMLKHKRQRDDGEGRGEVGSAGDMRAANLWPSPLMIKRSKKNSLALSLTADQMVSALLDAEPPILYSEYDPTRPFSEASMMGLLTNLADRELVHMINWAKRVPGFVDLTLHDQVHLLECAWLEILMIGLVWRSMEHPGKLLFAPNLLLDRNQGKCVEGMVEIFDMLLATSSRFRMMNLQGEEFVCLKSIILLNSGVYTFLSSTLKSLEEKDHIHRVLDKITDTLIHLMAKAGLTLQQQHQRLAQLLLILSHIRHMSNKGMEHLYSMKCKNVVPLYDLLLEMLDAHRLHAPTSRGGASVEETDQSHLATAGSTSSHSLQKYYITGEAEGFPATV
- measurement-description: ERα antagonism reporter (luciferase) assay in transfected COS-1 cells
- Assay type: cell-based
- Parameters: expressed in transfected cells; host or cells: COS-1
- recorded-conditions: sample concentration 10 μM with 100 nM E2, complete antagonism corresponding to 5.7, 18 hours
Give bare numbers.

Examples from the recorded data:
>  <compound>
Oc1ccc(CCCC2=NOC(Cc3ccc(O)cc3)C2)cc1 (stereo not drawn) [101ab]

>  <target-or-system>
ERα (Homo sapiens)

>  <reported>
39.4

$$$$
>  <compound>
CC1(c2ccccc2)CC(CCc2cccc(O)c2)=NO1 (single isomer, unassigned) [86a]

>  <target-or-system>
ERα (Homo sapiens)

>  <reported>
87.3

$$$$
>  <compound>
Oc1ccc(CC2=NOC(c3ccccc3)C2)cc1 (single isomer, unassigned) [84a]

>  <target-or-system>
ERα (Homo sapiens)

>  <reported>
93.6

$$$$
>  <compound>
Oc1ccc(CCCC2=NOC(Cc3ccccc3)C2)cc1O (single isomer, unassigned) [102a]

>  <target-or-system>
ERα (Homo sapiens)

>  <reported>
115.2

$$$$
>  <compound>
CC1(c2ccccc2)CC(CCc2cccc(O)c2)=NO1 (single isomer, unassigned) [86b]

>  <target-or-system>
ERα (Homo sapiens)

>  <reported>
101.8

$$$$

Please look at the items below and tell me ERα receptor antagonism relative to 100 nM E2 corresponding 100 for each one, in order.
1. CC1(c2ccccc2)CC(CCc2ccccc2O)=NO1 (single isomer, unassigned) [85b]
2. CC1(c2ccccc2)CC(CCc2ccccc2O)=NO1 (single isomer, unassigned) [85a]
3. CC1(c2ccccc2)CC(CCc2ccc(O)cc2)=NO1 (single isomer, unassigned) [87b]
4. Oc1ccc(CC2=NOC(c3ccccc3)C2)cc1 (single isomer, unassigned) [84b]
5. Oc1ccc(CCCC2=NOC(Cc3ccccc3)C2)cc1 (stereo not drawn) [99ab]

Completion:
57.9
95.6
55.0
64.5
132.9

Please look at the items below and tell me ERα receptor antagonism relative to 100 nM E2 corresponding 100 for each one, in order.
1. Oc1ccc(CCCC2=NOC(Cc3ccccc3)C2)cc1O (single isomer, unassigned) [102b]
2. CC1(c2ccccc2)CC(CCc2ccc(O)cc2)=NO1 (single isomer, unassigned) [87a]

Completion:
[104.8, 63.1]
